- TARGET_UNDER_TEST: [35S]-TBPS binding, rat brain cortical membranes
- EXPERIMENT_SUMMARY: Steroid inhibition of [35S]-TBPS binding
- SETUP_CONDITIONS: 3 nM [35S]-TBPS, in the presence of 5 mM GABA
pIC50: −log10 of the molar value.
REPORTED_PROPERTY: pIC50

(Q) So what does the record say about pIC50 for C[C@@]1(O)CC[C@H]2[C@H](CC[C@@H]3[C@@H]2CC[C@]2(C)[C@@H](CC(=O)Nc4ccccc4)CC[C@@H]32)C1 ?
(A) 6.00 to 7.00

(Q) So what does the record say about pIC50 for CC[C@@]1(O)CC[C@H]2[C@H](CC[C@@H]3[C@@H]2CC[C@]2(C)[C@@H]([C@@H](C)Cn4ccc(C#N)n4)CC[C@@H]32)C1 ?
(A) > 7.00

(Q) So what does the record say about pIC50 for CCOC[C@@]1(O)CC[C@H]2[C@H](CC[C@@H]3[C@@H]2CC[C@]2(C)[C@@H]([C@@H](C)Cc4ccc(C)nc4C#N)CC[C@@H]32)C1 ?
(A) > 7.00

(Q) So what does the record say about pIC50 for C[C@H]([C@H]1CC[C@H]2[C@@H]3CC[C@@H]4C[C@](C)(O)CC[C@@H]4[C@H]3CC[C@]12C)n1ncc(C#N)c1N ?
(A) 5.00 to 6.00

(Q) So what does the record say about pIC50 for CCOC[C@@]1(O)CC[C@H]2[C@H](CC[C@@H]3[C@@H]2CC[C@]2(C)[C@@H]([C@H](C)Cn4ccnn4)CC[C@@H]32)C1 ?
(A) > 7.00

###

- TARGET_UNDER_TEST: [35S]-TBPS binding, rat brain cortical membranes
- EXPERIMENT_SUMMARY: Steroid inhibition of [35S]-TBPS binding
- SETUP_CONDITIONS: 3 nM [35S]-TBPS, in the presence of 5 mM GABA
REPORTED_PROPERTY: IC50

(Q) Kindly state the measured IC50 obtained for C[C@H](Cc1ccc(C(F)(F)F)nc1)[C@H]1CC[C@H]2[C@@H]3CC[C@@H]4C[C@](C)(O)CC[C@@H]4[C@H]3CC[C@]12C [Example 444] with [35S]-TBPS binding, rat brain cortical membranes.
(A) 100 to 1000 nM

(Q) Kindly state the measured IC50 obtained for C[C@H](N[C@@H](C)[C@H]1CC[C@H]2[C@@H]3CC[C@@H]4C[C@](C)(O)CC[C@@H]4[C@H]3CC[C@]12C)c1ccccc1 [Example 210] with [35S]-TBPS binding, rat brain cortical membranes.
(A) 1000 to 10000 nM

(Q) Kindly state the measured IC50 obtained for C[C@@H](NS(=O)(=O)c1ccccc1)[C@H]1CC[C@H]2[C@@H]3CC[C@@H]4C[C@](C)(O)CC[C@@H]4[C@H]3CC[C@]12C [Example 18] with [35S]-TBPS binding, rat brain cortical membranes.
(A) < 100 nM

(Q) Kindly state the measured IC50 obtained for CC[C@@]1(O)CC[C@H]2[C@H](CC[C@@H]3[C@@H]2CC[C@]2(C)[C@@H]([C@@H](C)Nc4ccc(C#N)nc4)CC[C@@H]32)C1 [Example 491] with [35S]-TBPS binding, rat brain cortical membranes.
(A) 100 to 1000 nM

(Q) Kindly state the measured IC50 obtained for C[C@H](Cc1nc(C(F)(F)F)cs1)[C@H]1CC[C@H]2[C@@H]3CC[C@@H]4C[C@](C)(O)CC[C@@H]4[C@H]3CC[C@]12C [Example 450] with [35S]-TBPS binding, rat brain cortical membranes.
(A) 100 to 1000 nM

(Q) Kindly state the measured IC50 obtained for CCOC[C@@]1(O)CC[C@H]2[C@H](CC[C@@H]3[C@@H]2CC[C@]2(C)[C@@H]([C@@H](C)N(C)S(=O)(=O)c4cccc(C#N)n4)CC[C@@H]32)C1 [Example 72] with [35S]-TBPS binding, rat brain cortical membranes.
(A) < 100 nM

(Q) Kindly state the measured IC50 obtained for C[C@H](NC(=O)c1ccc(C#N)cc1)[C@H]1CC[C@H]2[C@@H]3CC[C@@H]4C[C@](C)(O)CC[C@@H]4[C@H]3CC[C@]12C [Example 115] with [35S]-TBPS binding, rat brain cortical membranes.
(A) 1000 to 10000 nM
